# TARGET UNDER TEST: LXR alpha (Homo sapiens)
# Construct: LXR alpha or beta LBD-GST; purchased ThermoFisher PV4655
# Sequence (Q13133 209-447 limits assumed): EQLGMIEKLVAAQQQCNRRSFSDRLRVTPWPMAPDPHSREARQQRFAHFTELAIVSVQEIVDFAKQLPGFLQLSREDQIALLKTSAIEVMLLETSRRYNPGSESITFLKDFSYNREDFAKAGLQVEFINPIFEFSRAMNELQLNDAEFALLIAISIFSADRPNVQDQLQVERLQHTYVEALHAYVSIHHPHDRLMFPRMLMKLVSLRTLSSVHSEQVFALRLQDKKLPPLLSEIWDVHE
# TEST SUMMARY: LanthaScreen TR-FRET LXR alpha Coactivator Assay (cell-free binding)
MEASURE NAME: IC50

[[record]]
compound = "C[C@]1(C(=O)NC(=O)[C@@]2(C)CCC[C@]3(C)c4cc(OP(=O)(O)O)ccc4CC[C@@H]23)CCC[C@]2(C)c3cc(N)ccc3CC[C@@H]12 [Compound 17c]"
result = "> 100 nM"

[[record]]
compound = "COP(=O)(O)Oc1ccc2c(c1)[C@@]1(C)CCC[C@](C)(C(=O)NC(=O)[C@@]3(C)CCC[C@]4(C)c5cc(N)ccc5CC[C@@H]34)[C@@H]1CC2 [Compound 17b]"
result = "10 to 100 nM"

